Answer each item with its documented OD450 at 0.2 µg/mL.
Biological target: T1, PD-1 protein (human, UniProt Q15116 25-167, limits assumed)
T1 construct: also called human PD-1
T1 sequence (Q15116 25-167 limits assumed): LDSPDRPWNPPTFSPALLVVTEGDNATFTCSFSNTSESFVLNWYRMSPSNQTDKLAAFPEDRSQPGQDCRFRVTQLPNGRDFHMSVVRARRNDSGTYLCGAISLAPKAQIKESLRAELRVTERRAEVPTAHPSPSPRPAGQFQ
Assay: ELISA, PD-1 coated
Numbers only, in OD450.

Take a look at these entries with their results.
BINDER	READOUT_VALUE
504#SS1 (Fc fusion, VHH-FC construct from HEK293 cells; not shown: The (G4S)3 linker leading to it is left out with it) VHH: QVQLVESGGGLVQAGGSLRLSCAASGLTFSDFAMGWFRQAPGKEREFVAAISWSGGQTYNVESAKGRFTISRDNAKNTVYLQMNKLKPDDTAVYYCAASTMVVTTVAADYKYWGQGTQVTVSS	0.03
504#SS2 (Fc fusion, VHH-FC construct from HEK293 cells; not shown: The (G4S)3 linker leading to it is left out with it) VHH: EVQVVESGGGLVKTGDSLRLSCAASGGTISGYEMGWFRQAPGKEREFVAGISRNGRSTGYSDSAKDRFTISRDNAKNTVYLQMNSLKPEDTAVYYCAAGLKADYGDSYVDTSTRNYNYWGQGTQVTVSS	3.12
504#SS23 (Fc fusion, not shown: a dimerising Fc or GST; small tags and cut ends, VHH-FC construct from HEK293 cells) VHH: QVQLVESGGGLVQPGGSLRLSCAASGFTFSSYVMSWVRQAPGKGLEWVSAINSGGSSSSYPESVKDRFTVSRDNAKNTLYLQMNSLKPEDTAVYFCAAKNVPGFYYSDYANHEYDYWGQGTQVTVSS	2.91

Please go through the list and note OD450 at 0.2 µg/mL for each binder.
1. 504#SS22 (Fc fusion, not shown: a dimerising Fc or GST; small tags and cut ends, VHH-FC construct from HEK293 cells) VHH: QVQLVETGGGLVQAGGSLRLSCAASGRTFSSYAMGWFRQAPGKERDFVAGISGSGGNTPYAESVKGRFTISRDNAKNTVALQMNSLKPEDTAVYYCAAKFTSSSFYYRSPREYSSWGQGTQVTVSS
2. 504#SS15 (Fc fusion, not shown: a dimerising Fc or GST; small tags and cut ends, VHH-FC construct from HEK293 cells) VHH: QVQLVESGGGLVQPGGSLRLSCAASGFTFSNYAMTWYRQAPGKERELVAAISSAGYTTTYAGSVKGRFTISRDNAKNTVYLQMNSLNPEDTAVYYCNAGRLSYGGSYYPNDDYWGQGTQVTVSS
3. 504#SS5 (Fc fusion, VHH-FC construct from HEK293 cells; not shown: The (G4S)3 linker leading to it is left out with it) VHH: QVQLVESGGGSAQAGGSLRLSCTASGRPFSIYDMGWFRQAPGKERESVAVINLSRGNTYYADSVKGRFTISLDSAKNTVYLQMNSLKPEDTAVYSCGVDRRQYGLGIPPLADYWGQGTQVTVSS
4. 504#SS9 (Fc fusion, VHH-FC construct from HEK293 cells; not shown: The (G4S)3 linker leading to it is left out with it) VHH: EVQLQESGGGLVQAGGSLRLSCAASGRSFSGYAMAWFRQAPGKEREFVAAVNWNGGSTYYADSVKGRFTISRDNAKDTVYLQMNSLKPEDTAVYYCNARPTFGAYYSDYKSGVDYWGQGTQVTVSS
5. 504#SS12 (Fc fusion, not shown: a dimerising Fc or GST; small tags and cut ends, VHH-FC construct from HEK293 cells) VHH: EVQVVESGGGLVQPGGSLRLSCAVSGRGFSEHAMGWYRQSPGKQREFVAGVTSYGGTNYADSVKGRFTISRDNVGNTVFLQMNSLKPEDTAVYYCNYKRGHYPDGVSTYEYWGQGTQVTVSS
6. 504#SS10 (Fc fusion, not shown: a dimerising Fc or GST; small tags and cut ends, VHH-FC construct from HEK293 cells) VHH: EVQLVESGGGLVQPGASLRLSCTASGSIFSIYAMGWYRQAPGKQRELVAYITSGGSTTYADSVKGRFTISRDNAKNTVYLQMNSLKPEDTAVYYCNRGNYYRDYKPEFWGQGTQVTVSS

0.03
0.04
3.18
0.03
0.04
0.03

Would you be so kind as to report OD450 at 0.2 µg/mL for each listed record?
1. 504#SS16 (Fc fusion, not shown: a dimerising Fc or GST; small tags and cut ends, VHH-FC construct from HEK293 cells) VHH: EVQVVESGGGLVQAGGSLRLSCAVSGRTFSSYVMGWFRQAPGKERDFVAAISRSGGRTWYADSVKGRFTISFDNAKNTVYLQMNSLKPEDTASYYCNTDYTFAKLTAPDRRNDDWGQGTQVTVSS
2. 504#SS7 (Fc fusion, VHH-FC construct from HEK293 cells; not shown: The (G4S)3 linker leading to it is left out with it) VHH: QVQLVESGGGLVQAGGSLTLSCAASGRTFNSYAMGWFRQAPGKEREFVAAISQNGGSQGYAEAVKDRFTISRDNTNKVVALQMNSLKPEDTAAYYCAADGDASDRSYAPPRDYKYEYWGQGTQVTVSS
3. 504#SS28 (Fc fusion, not shown: a dimerising Fc or GST; small tags and cut ends, VHH-FC construct from HEK293 cells) VHH: QVQLVESGGGSVQPGGSLRLSCAVSGFTLDYYDIGWFRQAPGKERDWISCISSSDGSQYYADSVKDRFFISRDNAKNTVYLQMNSLEPGDTAVYYCAADFDTYRFCSGFGPDAYSSWGQGTQVIVSS
4. 504#SS13 (Fc fusion, not shown: a dimerising Fc or GST; small tags and cut ends, VHH-FC construct from HEK293 cells) VHH: EVQVVESGGGSVQPGGSLRLSCAASGRGFTEHAMGWYRQSPGKEREFVAGISSGGSTYYADSVKGRFTVSRDSAGNTVALQMDSLKPEDTAVYYCSYKRGRYPDGVSTLEYWGQGTQVTVSS
5. 504#SS25 (Fc fusion, not shown: a dimerising Fc or GST; small tags and cut ends, VHH-FC construct from HEK293 cells) VHH: QVQLVETGGGLVQAGGSLRLSCAASGDTIFISSMAWYRQAPGKERELVASIDSDDIIYYAATVKGRFTISRDNDKPTMYLQMDTLQPEDTAVYYCRVESQDYYFDYDRDSWGQGTQVTVSS
6. 504#SS14 (Fc fusion, not shown: a dimerising Fc or GST; small tags and cut ends, VHH-FC construct from HEK293 cells) VHH: QVQLVESGGGLVQPGGSLRLSCVASGFTFSSYWMYWVRQAPGKGLEWVSAIDTTGGSTAYTHSVKGRFTISRDNARNTLYLQMNNLKSEDTAVYYCANSTYFNDDPEYDRWGQGTQVTVSS

1. 0.03
2. 0.24
3. 2.77
4. 0.03
5. 0.03
6. 0.03
